# testSystem: Luciferin 4-monooxygenase (Photinus pyralis)
# runDescription: Firefly luciferase inhibition profiling of diverse chemical library using quantitative high-throughput screening; note: nearly all actives have a fitted effect of over 65% in size
# testConditions: purified P. pyralis luciferase, luminescence, biochemical; series mostly up to 115 µM
Hit rate of the full screen: of about 76,000 compounds, about 1,900 (2.5%) were called active. Not shown: some 5% with an inconclusive outcome. Calls come from the whole dose curve; as a rule, active = well fitted inhibition curve with a large enough effect; inconclusive = small, poorly fitted or top-dose-only effect; inactive = flat fitted curve, though single readings scatter. This is one part of a sample in which actives are shown more often than they occur.
Give your call using only these classes: active, inactive

Query :: Kindly provide the recorded test outcome for the following compound: Cc1nn(-c2ccc(C(C)C)cc2)c(C)c1[C@@H]1C=C[C@@H](NC(=S)NCC(C)C)C1
Result :: active

Query :: And the next one, COCc1nc(C2CC(NC(=O)c3cc(-c4ccsc4)n[nH]3)C2)cc(=O)[nH]1 (centres undefined) ?
Result :: active

Query :: And the next one, Cc1cnc(CCNC(=O)c2ccco2)n1C1CCC1 ?
Result :: inactive

Query :: And the next one, Cc1ccc(C(=O)N2CCCC(c3nc(-c4ccccc4)no3)CCNC(=O)CC2)cn1 (centres undefined) ?
Result :: active

Query :: And the next one, Cc1cn2nc(C(=O)N3CCC(NC(=O)c4ccc(C#N)cc4)CC3)cc2c(=O)[nH]1 ?
Result :: inactive

Query :: And the next one, Cc1nn(Cc2ccccc2)c(C)c1[C@@H]1C=C[C@@H](NC(=O)NC(C)C)C1 ?
Result :: inactive

Query :: And the next one, O=C(c1ccccc1-n1cccn1)N1CCN(Cc2ccccc2CO)CC1 ?
Result :: inactive

Query :: And the next one, Fc1ccc(Cc2nc3nccc(-c4ccco4)n3n2)cc1 ?
Result :: inactive

Query :: And the next one, CN(C)c1ccc(NC(=O)COc2ccc(-c3nnc4n3CCCC4)cc2)cc1 ?
Result :: inactive

Query :: And the next one, Cc1c(Cl)cccc1NC(=O)N1C[C@@H](F)C[C@H]1C(=O)N1CCc2ccccc2C1 ?
Result :: inactive

Query :: And the next one, COc1ccc(-c2cn3c(n2)CO[C@@H](CNCc2ccc(F)c(F)c2)C3)cc1 ?
Result :: active

Query :: And the next one, O=C(c1cc(-c2ccccc2)n[nH]1)N1CC2CC(C1)[C@H]1CCCC(=O)N1C2 (some centres undefined) ?
Result :: inactive

Query :: And the next one, COCc1nc(-c2ccc(NC(=O)Cn3nc4c(cc3=O)CCCC4)cc2)n[nH]1 ?
Result :: inactive

Query :: And the next one, Cc1nn(Cc2ccccc2)c(C)c1[C@@H]1C=C[C@@H](NC(=O)NC2CCCCC2)C1 ?
Result :: inactive

Query :: And the next one, CCC(C)NC(=O)Cc1csc2nc(C)c(-c3cc(C)n(-c4ccc(C(C)C)cc4)n3)c(=O)n12 (centres undefined) ?
Result :: inactive

Query :: And the next one, CC(C)(C)c1ccnc(N[C@H]2CO[C@H]3[C@@H]2OC[C@@H]3NC(=O)CC2(CC(=O)O)CCCC2)n1 ?
Result :: inactive

Query :: And the next one, Cc1nn(-c2ccc(C(C)(C)C)cc2)c(C)c1[C@@H]1C=C[C@@H](NC(=O)c2ccco2)C1 ?
Result :: active

Query :: And the next one, Cc1nn(CCC#N)c(C)c1[C@@H]1C=C[C@@H](NS(=O)(=O)c2ccccc2)C1 ?
Result :: inactive

Query :: And the next one, Cc1nn(-c2ccc(C(C)C)cc2)c(C)c1[C@@H]1C=C[C@@H](NC(=O)CC2(CC(=O)O)CCCC2)C1 ?
Result :: active
